- Tested on: KM12 colon
- Method: NCI-60 one-dose screen, 48 h
- Applied Conditions: 10 µM unless noted
This is part of a sample that, as a whole, favours compounds with a hit. Of some 83,000 tested, about 20% had one in any assay. Active and inactive are the calls of the source. The calls were made as follows: active = growth percent below 10; inactive = the rest.
API: response.call in label 1 = active, label 0 = inactive

COC(=O)c1ccc2[nH]c(O)c(C(=Nc3ccc(N(C)C(=O)CN4CCN(C)CC4)cc3)c3ccc([N+](=O)[O-])cc3)c2c1 :: label 0

*Q* Dear all, I need the recorded test outcome for C=C(C)[C@@H]1CC[C@]2(COC(=O)c3ccccc3C(=O)O)CC[C@]3(C)[C@H](CC[C@@H]4[C@@]5(C)CCCNC(C)(C)[C@@H]5CC[C@]43C)[C@@H]12 , thank you.
*A* label 0

*Q* Okay, and CC1CCCCC[N+]12CCCC2 (stereo not given) ?
*A* label 0

*Q* Try this compound too: N#CCCCCCCCCCCC#N
*A* label 0

*Q* Also CC(=N\N=C(N)N)/C(=N/N=C(N)N)c1ccccc1 , if possible.
*A* label 0

====

- Tested on: RXF 393 renal
- Method: NCI-60 one-dose screen, 48 h
- Applied Conditions: 10 µM unless noted
Compounds without any hit were thinned out: in the full panel of roughly 83,000, 20% have a hit. Calls of active or inactive are those of the source. How the source made its calls: active means growth percent below 10; inactive means the rest.
The reply should name one outcome from TRUE for active, FALSE for inactive

# count of solved cases: 5
COC(=O)[C@H](Cc1cn(C)cn1)NC(=O)[C@H](Cc1c[nH]c2ccccc12)NC(=O)Nc1cc(C(F)(F)F)cc(C(F)(F)F)c1 :: TRUE
Cc1ccnc2c(NC(C)CCCN)cc(O)c(O)c12 (stereo not given) :: FALSE
COc1cc(C(=O)Nc2ccc(N(C)C)cc2)cc(OC)c1OC :: FALSE
COC(=O)C1CC(=O)N(C(=O)Nc2ccc(Cl)cc2Cl)C1 (stereo not given) :: FALSE
CCOC(=O)C1=C(C(F)(F)F)NC(=S)NC1CN1C(=O)c2ccccc2C1=O (stereo not given) :: FALSE

*Q* Assay result, entry COC(=O)C(Cc1cnc[nH]1)N1CC(=O)N2[C@@H](c3ccccc3)SC[C@H]2C1=O (stereo not given in full) — outcome?
*A* FALSE

====

- Tested on: MCF7 breast
- Method: NCI-60 one-dose screen, 48 h
- Applied Conditions: 10 µM unless noted
Compounds without any hit were thinned out: in the full panel of roughly 83,000, 20% have a hit. Active and inactive are the calls of the source. How the source made its calls: active means growth percent below 10; inactive means the rest.
Write down the outcome that applies. Available outcomes: active, inactive

O=C(CBr)OCc1ccc([N+](=O)[O-])o1 :: inactive

*Q* What did the test return for CC(=O)/C(=C\c1c(-c2ccccc2)[nH]c2ccccc12)S(=O)(=O)c1ccccc1 ?
*A* inactive

*Q* Can you handle C/C=C/C/C=C/[C@H](C)C[C@H](O)[C@@H]1C[C@@H]2O[C@H]2/C=C/[C@@H]2OC(C)(C)O[C@H]2/C=C/C[C@H](C)CC(=O)O1 next?
*A* inactive

*Q* Also CCCCCCC(=O)C(C)C , if possible.
*A* inactive

*Q* Check Oc1ccccc1/C=N/N=C/c1c(O)ccc2ccccc12 too.
*A* inactive

====

- System: TK-10 renal
- Method: NCI-60 one-dose screen, 48 h
- Applied Conditions: 10 µM unless noted
Compounds without any hit were thinned out: in the full panel of roughly 83,000, 20% have a hit. Activity calls are given as the source filed them. Rule for the calls: active = growth percent below 10; inactive = the rest.
One label from this list, please: 1 (active), -1 (inactive)

These recorded examples may help you get a feel for the data.
COc1ccccc1C(=O)Nc1cccc(-c2cc(=O)c3c(OC)c(OC)c(OC)cc3o2)c1 :: -1
CCCCN(CCCC)CC(O)CN(CC)CC (stereo unspecified) :: -1
CCCCN(CCCC)CCCNc1c2c(nc3ccc(Cl)cc13)CCCC2 :: -1

*Q* Would you mind telling me which call this test gave CC#Cc1nc(Nc2cc(C)[nH]n2)c2ccccc2n1 ?
*A* 1

*Q* Input COc1ccc(CNCCCN2C(=O)c3ccc4c5c(ccc(c35)C2=O)C(=O)N(CCCNCc2ccc(OC)c(OC)c2OC)C4=O)c(OC)c1OC
*A* 1

*Q* Now the compound OCC(O)C(O)CC1SCCS1 (stereo unspecified)
*A* -1

*Q* Also, c1ccc(Nc2ncc3c(n2)-c2cccn2CC3)cc1 please.
*A* -1

*Q* And for COc1cc(NC(=O)CSc2nc3ccc(Cl)cc3c(=O)n2-c2ccc(F)cc2)cc(OC)c1OC ?
*A* -1

====

- System: PC-3 prostate
- Method: NCI-60 one-dose screen, 48 h (100 = growth as untreated, 0 = no growth, -100 = all killed)
- Applied Conditions: 10 µM unless noted
This is part of a sample that, as a whole, favours compounds with a hit. Of some 83,000 tested, about 20% had one in any assay.
Examples of molecules with documented growth follow.
API: value field is a number in %; no unit string.

CCCCCCCCCCCCCCCCCC1=NCCN1CS(=O)(=O)O :: 39
COC1=CC(c2ccc[nH]2)=N/C1=C\c1[nH]c(C)c(C(=O)CCCCC(=O)NC(C)(C)C)c1C :: -31.3
CC1=C(C)C(=O)C(C(C)C2=C(C)C(=O)C(C)=C(C)C2=O)=C(C)C1=O :: 52.4

*Q* Reported growth, molecule O=C(Nc1ccc(-n2cc(-c3ccncc3)c(-c3ccc(Cl)c(O)c3)n2)cc1)Nc1cc(C(F)(F)F)cc(C(F)(F)F)c1 : ____
*A* 4.61

*Q* Try this molecule next: NC(=O)CC(NC(=O)COc1ccc(Cl)cc1Cl)C(=O)O (stereo not given)
*A* 94.2

*Q* Queued: COc1ccccc1Cn1cc2c(c1)-c1oncc1CC2
*A* 25.4

*Q* Try this molecule too: C[n+]1c2ccccc2c(Nc2ccc(NS(=O)(=O)CCCCN=C(N)N)cc2)c2ccc(N)cc21
*A* 48.3

*Q* Now consider CCN(CCO)CCNc1ccc(C)c2sc3cc(OC)ccc3c(=O)c12 .
*A* 71.2

*Q* Similarly, O=c1c2c(c3ccccc3n1-c1ccccc1)NC(=S)NC2c1ccc(Cl)cc1 (stereo not given) ?
*A* -4.33

*Q* Now consider CCn1cc(C(=O)O)c(=O)c2cc(F)c(N3CCN(S(=O)(=O)c4ccc(Cl)cc4)CC3)cc21 and answer again.
*A* 25.3

====

- Tested on: CAKI-1 renal
- Method: NCI-60 one-dose screen, 48 h
- Applied Conditions: 10 µM unless noted
About 83,000 compounds went through this panel and 20% of them were active in at least one assay; those are over-represented in the sample as a whole. Activity calls are given as the source filed them. Rule for the calls: active = growth percent below 10; inactive = the rest.
A correct response names exactly one class from active, inactive

Worked examples, 5 molecules total:
Cc1ccc(C(=O)C(Br)C(Br)c2ccccc2)cc1 (stereo unspecified) :: inactive
CC1C(=O)CCCC1=O :: inactive
N#Cc1c2cccnc2c2nnc3cc(Cl)c(Cl)cc3n12 :: active
C=C[C@]1(C)C=C2C(=O)[C@@]3(O)OC[C@@]4(CCCC(C)(C)C43O)C2(O)C(O)C1 (stereo partly specified) :: inactive
CC(=O)N1CCN(CCNC(=O)n2cc(-c3ccncc3)c(-c3ccc(O)c(Cl)c3)n2)CC1 :: inactive

Let's switch to this molecule now.
*Q* Recorded test call requested for CNc1nc2ncn(C)c2c(=O)[nH]1
*A* inactive

====

- System: OVCAR-5 ovarian
- Method: NCI-60 one-dose screen, 48 h
- Applied Conditions: 10 µM unless noted
About 83,000 compounds went through this panel and 20% of them were active in at least one assay; those are over-represented in the sample as a whole. Active and inactive are the calls of the source. Rule for the calls: active = growth percent below 10; inactive = the rest.
In this exercise, the only acceptable responses are active, inactive

CC[N+](C)(C)N :: inactive

*Q* Could you kindly confirm the outcome this assay logged for N=C(N)c1ccc(-c2ccc(-c3cc(Cl)cc(Cl)c3)s2)cc1 ?
*A* active

*Q* // next record CC(=O)N1CCN(CCNC(=O)n2cc(-c3ccncc3)c(-c3ccc(O)c(Cl)c3)n2)CC1
*A* inactive

*Q* Try this molecule next: CC[n+]1c(C)ccc2cc(C)ccc21
*A* inactive

*Q* Param item: Nc1ccc(S(=O)(=O)Nc2cc(F)cc(F)c2)cc1
*A* inactive

*Q* CC1=NN(c2cccc(Cl)c2)C(=O)/C1=C\c1cn(-c2nc(N3CCOCC3)nc(N3CCOCC3)n2)c2ccccc12 ?
*A* inactive

*Q* What about this molecule? CCOC(=O)CCCCCCCCC(=O)OCC
*A* inactive

*Q* Now consider CC(=O)Oc1cc2ccccc2cc1C(C)C .
*A* inactive

*Q* Now give it for CCCCCCCCCCC1OC(C)CC(C)O1 (configuration not stated) too.
*A* inactive

====

- Tested on: HS 578T breast
- Method: NCI-60 one-dose screen, 48 h
- Applied Conditions: 10 µM unless noted
The panel holds about 83,000 compounds, 20% with a hit somewhere; the sample as a whole holds those more often. Activity calls are given as the source filed them. Rule for the calls: active = growth percent below 10; inactive = the rest.
Give one outcome, nothing more. List: Y (active), N (inactive)

CCOc1ccc(/C=N/NC(=O)c2cccc3ccccc23)cc1OCC :: N
CCOC(=O)/C(C#N)=C(/CC)OCC :: N
O=C(NCCO)C(F)(F)F :: N
Cc1nc2c(nnn2-c2ccccc2)c2nc(-c3ccc(Cl)cc3)oc(=O)c12 :: N
Clc1ccc(N/N=C/c2ccccn2)nc1 :: N

*Q* Record lookup: outcome of this test for Cc1ccc(S(=O)(=O)NC(CCC(=O)Nc2ccccc2)C(=O)Nc2ccccc2)cc1 (centres undefined) ?
*A* Y

*Q* Try the compound O=C(c1ccccc1)c1ccccc1-c1ccccc1
*A* Y

*Q* Also, O=[N+]([O-])c1ccc(-c2ncc(-c3ccc(O)cc3O)[nH]2)cc1 please.
*A* N

*Q* Also, COc1cc(/C=C/C(=O)/C=C(/C=C/c2ccc(OC(C)=O)c(OC)c2)OB(F)F)ccc1OC(C)=O please.
*A* N

*Q* Try this compound too: Cc1c(O)c(N=Nc2ccc(C(=O)O)c(O)c2)c2ccccc2c1O
*A* N

*Q* How about Cc1ccc(C(=O)Nc2ccc(CN3CCN(C)CC3)c(C(F)(F)F)c2)cc1C#Cc1cnc(N)c2ccc(C#N)cc12 ?
*A* N

*Q* Try Cc1nnc(/N=C2\NC(=O)/C(=C/C=C/c3ccccc3)S2)s1 next.
*A* N

*Q* Also COc1ccc2c(c1)/C(=C1/S/C(=N/c3nnc(C)s3)NC1=O)C(=O)N2Cc1ccc(Br)cc1 ?
*A* N

# credit: PubChem BioAssay (NCI)
